Origin of the recorded values: patent US6395255B1

# PROCEDURE_SUMMARY: Tissue distribution and gamma camera imaging in nude mice bearing LS174T tumors
# PARTICULARS: athymic NCr nude, mouse, spleen, iv, total radioactivity, Biodistribution, 24 h postinjection, nude mice bearing LS174T tumors, mean ± SD, n = 5
Square brackets hold non-standard residues; d marks the D form. Peptide text beside a SMILES is read from it. GABA = NCCCC(=O)O
MEASURE: tissue uptake at 24 h (%ID/g)

>  <COMPOUND>
C[C@@H](NC(=O)CN)C(=O)NCC(=O)NCC(=O)NCCCC(=O)O [^99mTc-G(D)AGG-Aba, metal not drawn] (H-G[dA]GG[GABA]-OH; N-terminus and C-terminus assumed)

>  <READOUT_VALUE>
0.06

$$$$

* * *

# PROCEDURE_SUMMARY: Tissue distribution and gamma camera imaging in nude mice bearing LS174T tumors
# PARTICULARS: athymic NCr nude, mouse, kidney, iv, total radioactivity, Biodistribution, 24 h postinjection, nude mice bearing LS174T tumors, mean ± SD, n = 5
Square brackets hold non-standard residues; d marks the D form. Peptide text beside a SMILES is read from it. GABA = NCCCC(=O)O

>  <MOLECULE>
C[C@@H](NC(=O)CN)C(=O)NCC(=O)NCC(=O)NCCCC(=O)O [^99mTc-G(D)AGG-Aba, metal not drawn] (H-G[dA]GG[GABA]-OH; N-terminus and C-terminus assumed)

>  <UNIT_OF_MEASURE>
%ID/g

>  <tissue uptake at 24 h>
0.2

$$$$

* * *

# PROCEDURE_SUMMARY: Tissue distribution and gamma camera imaging in nude mice bearing LS174T tumors
# PARTICULARS: athymic NCr nude, mouse, heart, iv, total radioactivity, Biodistribution, 24 h postinjection, nude mice bearing LS174T tumors, mean ± SD, n = 5
Square brackets hold non-standard residues; d marks the D form. Peptide text beside a SMILES is read from it. GABA = NCCCC(=O)O

>  <MOLECULE>
C[C@@H](NC(=O)CN)C(=O)NCC(=O)NCC(=O)NCCCC(=O)O [^99mTc-G(D)AGG-Aba, metal not drawn] (H-G[dA]GG[GABA]-OH; N-terminus and C-terminus assumed)

>  <tissue uptake at 24 h (%ID/g)>
0.01

$$$$
